Attribution: patent US20100278834A1

Recorded IC50, neutralisation of retroviral pseudotypes by entry
target: hemagglutinin of H5N1 clade 2.3 strain Anhui/1/05 (influenza A virus Anhui/1/05 (H5N1)); experiment: cell-based or functional assay
measurement.label: IC50, neutralisation of retroviral pseudotypes (µg/mL)

binder: FLD84 (antibody, V domains shown) VH: QVQLQESGPGLVKPSETLSLICAVSGASISSSYWSWIRQPPGKGLEWIGYIYYSGVTKYNPSLKSRVTLSVDTSKNHFSLKLSYVTAADTAVYYCARNLPDIAVVTAVQDATPVWFDPWGPGTLVSVSS VL: DIQLTQSPSSLSASVGDRVTITCRASQGIITYLNWYQQKPGKAPKLLIYATYSLQNGVPSRFSGSGSGTDFTLTISSLQPEDFATYYCQQSYSSLMFTFGQGTKLDIK
obs.value: 0.118
//
binder: FLD129 (antibody, V domains shown) VH: EVQLVESGGGLVQPGRSLRLSCAASGFTFSDFWMSWVRQAPGKGLEWVANIDQDGNERFYADSVKGRFTISRDNAKNSLYLQMTSLRADDTAVYYCARDGREGYFYGSGSFYNLKGLNWGQGTLLTVSS VL: QSVLTQPPSVSAAPGQRVTISCSGTSSNIGKNYVSWYQQLPGAAPKLLIYDNDKRPSGIPDRFSGSKSGTSATLGITGLQTGDEADYYCGTWDSSLSVGMFGGGTRLTVL
obs.value: 0.016
//
binder: FLD122 (antibody, V domains shown) VH: QFQLVQSGPEVKKPGTSVKVSCKASGYTSTTYGISWVRQVPGQGLEWMGWINPYNGNPHYGQKFQGRVTLTRDTSTNTAYLEILSLRSDDTAVYYCARDGWGQQLVPYYFDYWGQGTLVTVSS VL: DIVMTQSPLSLPVTPGEPASISCRASQSLLHSNGYNYLDWYLQKPGQSPQLLIQLGSTRASGVPDRFSGSGSGTDFTLEISRVEAEDVGVYYCMQALQLPLAFGQGTRLEIK
obs.value: 0.019
